Origin of the recorded values: patent US5602100A

biological target: δ-opioid receptor (Rattus norvegicus, UniProt P33533); construct: displacement of the radioligands from the rat brain membrane preparations; from tissue; host or cells: rat brain membrane preparations; assay: biochemical; type: binding
Sequence (P33533 whole entry): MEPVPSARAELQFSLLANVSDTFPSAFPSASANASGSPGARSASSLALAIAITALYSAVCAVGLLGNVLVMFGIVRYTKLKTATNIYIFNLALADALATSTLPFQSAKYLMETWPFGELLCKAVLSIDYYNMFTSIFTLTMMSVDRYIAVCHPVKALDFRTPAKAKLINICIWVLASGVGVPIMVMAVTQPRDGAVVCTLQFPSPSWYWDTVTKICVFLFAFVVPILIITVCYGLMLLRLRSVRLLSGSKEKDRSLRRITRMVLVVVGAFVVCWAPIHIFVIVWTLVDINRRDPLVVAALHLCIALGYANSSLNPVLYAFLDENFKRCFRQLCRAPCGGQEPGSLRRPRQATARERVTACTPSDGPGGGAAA
Non-standard residues stand in square brackets, D forms with d. Residues, ends and D or L forms follow the SMILES beside them. dNle = CCCC[C@@H](N)C(=O)O; Orn = NCCC[C@H](N)C(=O)O; Dab = NCC[C@H](N)C(=O)O
ENDPOINT: Ki (µM)
One number for each entry, in µM.

Answered cases to consult:
COMPOUND	Ki (µM)
C[C@@H](NC(=O)[C@@H](N)Cc1ccc(O)cc1)C(=O)N[C@@H](Cc1ccccc1)C(=O)N[C@@H](CCN)C(N)=O [BCH-2470, H-Tyr-D-Ala-Phe-A2 bu-NH2] (H-Y[dA]F[Dab]-NH2)	3.73
CCCC[C@@H](NC(=O)[C@@H](N)Cc1ccc(O)cc1)C(=O)N[C@@H](Cc1ccccc1)C(=O)N[C@@H](CCN)C(N)=O [BCH-2472, H-Tyr-D-Nle-Phe-A2 bu-NH2] (H-Y[dNle]F[Dab]-NH2)	2.13

# context switch: different compound, same Ki
q: // query Ki value for entry CC[C@@H](C)[C@@H](NC(=O)[C@@H](N)Cc1ccc(O)cc1)C(=O)N[C@@H](Cc1ccccc1)C(=O)N[C@@H](CCCN)C(N)=O [BCH-2456, H-Tyr-D-Ile-Phe-Orn-NH2] (H-Y[dI]F[Orn]-NH2)
a: 4.28

###

Give Ki for every item shown.
target: δ-opioid receptor (Rattus norvegicus, UniProt P33533); construct: displacement of the radioligands from the rat brain membrane preparations; from tissue; host or cells: rat brain membrane preparations; assay: biochemical; format: binding; conditions: read-out: [3H]HSLET Ki^δ
Non-standard residues stand in square brackets, D forms with d. Residues, ends and D or L forms follow the SMILES beside them. dNle = CCCC[C@@H](N)C(=O)O; dNva = CCC[C@@H](N)C(=O)O; Orn = NCCC[C@H](N)C(=O)O
Numbers only, in µM.

Answered cases to consult:
MOLECULE	QUANTITY_UNIT	Ki
CCCC[C@@H](NC(=O)[C@@H](N)Cc1ccc(O)cc1)C(=O)N[C@@H](Cc1ccccc1)C(=O)N[C@@H](CCCN)C(N)=O [BCH-1763, H-Tyr-D-Nle-Phe-Orn-NH2] (H-Y[dNle]F[Orn]-NH2)	µM	2.87
NCCCC[C@H](NC(=O)[C@H](Cc1ccccc1)NC(=O)[C@@H](CCCN=C(N)N)NC(=O)[C@@H](N)Cc1ccc(O)cc1)C(N)=O	µM	19.2
CCC[C@@H](NC(=O)[C@@H](N)Cc1ccc(O)cc1)C(=O)N[C@@H](Cc1ccccc1)C(=O)N[C@@H](CCCN)C(N)=O [BCH-752, H-Tyr-D-Nva-Phe-Orn-NH2] (H-Y[dNva]F[Orn]-NH2)	µM	2.2

# context switch: different molecule, same Ki
q: // query Ki value for entry N=C(N)NCCC[C@@H](NC(=O)[C@@H](N)Cc1ccc(O)cc1)C(=O)N[C@@H](Cc1ccccc1)C(=O)N[C@@H](CCCN)C(N)=O
a: 9.29

###

target: μ-opioid receptor (Rattus norvegicus); construct: displacement of the radioligands from the rat brain membrane preparations; from tissue; host or cells: rat brain membrane preparations; test: biochemical; assay type: binding
Sequence (P33535 whole entry): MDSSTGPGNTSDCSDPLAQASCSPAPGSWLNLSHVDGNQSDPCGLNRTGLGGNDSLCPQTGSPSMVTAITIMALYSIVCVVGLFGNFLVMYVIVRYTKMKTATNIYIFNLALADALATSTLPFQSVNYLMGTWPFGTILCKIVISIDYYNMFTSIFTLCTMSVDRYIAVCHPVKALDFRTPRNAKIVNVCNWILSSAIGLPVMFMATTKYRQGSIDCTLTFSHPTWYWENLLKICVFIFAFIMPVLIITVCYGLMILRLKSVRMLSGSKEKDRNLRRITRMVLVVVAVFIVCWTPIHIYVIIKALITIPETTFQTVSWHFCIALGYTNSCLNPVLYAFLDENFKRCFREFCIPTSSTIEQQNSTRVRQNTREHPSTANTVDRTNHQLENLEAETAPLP
Non-standard residues stand in square brackets, D forms with d. Residues, ends and D or L forms follow the SMILES beside them. dNle = CCCC[C@@H](N)C(=O)O; Orn = NCCC[C@H](N)C(=O)O; Dab = NCC[C@H](N)C(=O)O
ENDPOINT: pKi
Give bare numbers, as −log10 of the molar value.

Answered cases to consult:
COMPOUND	ENDPOINT	TEST_RESULT
CC[C@@H](C)[C@@H](NC(=O)[C@@H](N)Cc1ccc(O)cc1)C(=O)N[C@@H](Cc1ccccc1)C(=O)N[C@@H](CCCN)C(N)=O [BCH-2456, H-Tyr-D-Ile-Phe-Orn-NH2] (H-Y[dI]F[Orn]-NH2)	pKi	8.35
NCC[C@H](NC(=O)[C@H](Cc1ccccc1)NC(=O)[C@@H](CO)NC(=O)[C@@H](N)Cc1ccc(O)cc1)C(N)=O [BCH-2469, H-Tyr-D-Ser-Phe-A2 bu-NH2] (H-Y[dS]F[Dab]-NH2)	pKi	8.29
CC(C)[C@@H](NC(=O)[C@@H](N)Cc1ccc(O)cc1)C(=O)N[C@@H](Cc1ccccc1)C(=O)N[C@@H](CCN)C(N)=O [BCH-2467, H-Tyr-D-Val-Phe-A2 bu-NH2] (H-Y[dV]F[Dab]-NH2)	pKi	8.58
C[C@@H](NC(=O)[C@@H](N)Cc1ccc(O)cc1)C(=O)N[C@@H](Cc1ccccc1)C(=O)N[C@@H](CCN)C(N)=O [BCH-2470, H-Tyr-D-Ala-Phe-A2 bu-NH2] (H-Y[dA]F[Dab]-NH2)	pKi	8.23

Hi, could you look up pKi for each item in my list?
1. CCCC[C@@H](NC(=O)[C@@H](N)Cc1ccc(O)cc1)C(=O)N[C@@H](Cc1ccccc1)C(=O)N[C@@H](CCCCN)C(N)=O [BCH-2205, H-Tyr-D-Nle-Phe-Lys-NH2] (H-Y[dNle]FK-NH2)
2. CC(C)[C@@H](NC(=O)[C@@H](N)Cc1ccc(O)cc1)C(=O)N[C@@H](Cc1ccccc1)C(=O)N[C@@H](CCCCN)C(N)=O [BCH-2206, H-Tyr-D-Val-Phe-Lys-NH2] (H-Y[dV]FK-NH2)
3. N=C(N)NCCC[C@H](NC(=O)[C@H](Cc1ccccc1)NC(=O)[C@@H](CCCNC(=N)N)NC(=O)[C@@H](N)Cc1ccc(O)cc1)C(N)=O [BCH-1766, H-Tyr-D-Arg-Phe-Arg-NH2] (H-Y[dR]FR-NH2)
4. CC[C@@H](C)[C@@H](NC(=O)[C@@H](N)Cc1ccc(O)cc1)C(=O)N[C@@H](Cc1ccccc1)C(=O)N[C@@H](CCCCN)C(N)=O [BCH-2203, H-Tyr-D-Ile-Phe-Lys-NH2] (H-Y[dI]FK-NH2)

a:
1. 7.91
2. 8.18
3. 7.01
4. 8.13

q: // query pKi value for entry CC(C)C[C@@H](NC(=O)[C@@H](N)Cc1ccc(O)cc1)C(=O)N[C@@H](Cc1ccccc1)C(=O)N[C@@H](CCN)C(N)=O [BCH-2474, H-Tyr-D-Leu-Phe-A2 bu-NH2] (H-Y[dL]F[Dab]-NH2)
a: 7.16
